B1: ATRX_(1,265–1,285), α-helix frame only (αDID), wild type peptide [human] / DAXX helical bundle (DHB) domain of death domain-associated protein (DAXX), aa 55-144 [not stated] (parent complex)
chain 1: NDPENRIAKKMLLEEIKANLS
chain 2: GKKCYKLENEKLFEEFLELCKMQTADHPEVVPFLYNRQQRAHSLFLASAEFCNILSRVLSRARSRPAKLYVYINELCTVLKAHSAKKKLN

- Variants of: B1
- method: ITC
Reported Kd values follow for various variants
# include the unit after the value

// known answers, use as guide
chain 1 NDPENRIAAKMLLEEIKANLS : 2.3 µM
chain 1 NDPENRIAKKMLLEQIKANLS : 3.2 µM
chain 1 NDPQNRIAKKMLLEEIKANLS : 5.6 µM

Here's the next entry for you.
query: What does the data say about its Kd? Entry: chain 1 NNPENRIAKKMLLEEIKANLS
result: 7 µM
